Tested on: hepatocytes
ASSAY_TEXT: RNA-seq of hepatocytes stimulated with the compounds of Table 68
CONDITION_SUMMARY: hepatocytes stimulated with the compound; RNA-seq; significance: FPKM≥1, q-value≤0.05, log 2 fold change≥1.5
PROPERTY_LABEL: # of genes having significantly altered expression
// keep it numeric: no unit symbol after the value

Answered cases to consult:
COMPOUND: COCCOc1cnc2ccn([C@H](C)c3nnc4c(F)cc(-c5cnn(C)c5)cn34)c(=O)c2c1
RECORDED_VALUE: 3
//
COMPOUND: Cc1nc(Nc2ncc(C(=O)Nc3c(C)cccc3Cl)s2)cc(N2CCN(CCO)CC2)n1
RECORDED_VALUE: 2970
//
COMPOUND: O=C1CCC(N2C(=O)c3ccccc3C2=O)C(=O)N1 (stereo not shown) [Thalidomide]
RECORDED_VALUE: 3092

Recorded # of genes having significantly altered expression for Oc1c2ccccc2c2c3c(cccc13)N=N2 , please?
193

----------
Tested on: hepatocytes
ASSAY_TEXT: RNA-seq of hepatocytes treated with Phase III failure compounds
// NB: equality with 0.3 counts as NOT MET; only RNA-seq results: CYP2B6 expression strictly below is MET

Take a look at these entries with their results.
MOL_SMILES: Cn1cnc2c(F)c(Nc3ccc(Br)cc3Cl)c(C(=O)NOCCO)cc21
CLASS_NAME: MET
--
MOL_SMILES: CCOC(=O)N1c2ccc(C(F)(F)F)cc2[C@@H](N(Cc2cc(C(F)(F)F)cc(C(F)(F)F)c2)C(=O)OC)C[C@H]1CC
CLASS_NAME: MET
--
MOL_SMILES: CCN(CC)CCN(Cc1ccc(-c2ccc(C(F)(F)F)cc2)cc1)C(=O)Cn1c(SCc2ccc(F)cc2)nc(=O)c2c1CCC2
CLASS_NAME: MET
--
MOL_SMILES: C=CCNC1=C2C[C@@H](C)C[C@H](OC)[C@H](O)[C@@H](C)/C=C(\C)[C@H](OC(N)=O)[C@@H](OC)/C=C\C=C(/C)C(=O)NC(=CC1=O)C2=O
CLASS_NAME: MET
--
MOL_SMILES: NC(=O)c1ccc(I)c([N+](=O)[O-])c1
CLASS_NAME: NOT MET
--
MOL_SMILES: COc1cc2c(Oc3ccc4[nH]c(C)cc4c3F)ncnc2cc1OCCCN1CCCC1
CLASS_NAME: NOT MET
--
MOL_SMILES: Cn1cc(C2=C(c3cn(C4CCN(Cc5ccccn5)CC4)c4ccccc34)C(=O)NC2=O)c2ccccc21
CLASS_NAME: NOT MET

Please turn your attention to the following entry.
Determine whether this compound shows RNA-seq results: CYP2B6 expression lower than 0.3 (ties excluded): COc1cc2nccc(Oc3ccc(NC(=O)Nc4cc(C)on4)c(Cl)c3)c2cc1OC
MET

----------
Tested on: hepatocytes
ASSAY_TEXT: RNA-seq of hepatocytes treated with Phase III failure compounds
Method: RNA-seq was performed to determine the effects of the compounds on hepatocytes. Significance was determined by the criteria of FPKM≥0.5, a log 2(fold-change)≥1, and a […].
# key: entry, value: RNA-seq results: CYP2C19 expression
// keep it numeric: no unit symbol after the value

Return RNA-seq results: CYP2C19 expression measured with hepatocytes given this compound: Cn1cnc2c(F)c(Nc3ccc(Br)cc3Cl)c(C(=O)NOCCO)cc21 [Selumetinib]
0.1

Another compound to look at: CCN(CC)CCN(Cc1ccc(-c2ccc(C(F)(F)F)cc2)cc1)C(=O)Cn1c(SCc2ccc(F)cc2)nc(=O)c2c1CCC2 [Darapladib]
0.54

Another compound to look at: COc1cc2nccc(Oc3ccc(NC(=O)Nc4cc(C)on4)c(Cl)c3)c2cc1OC [Tivozanib]
0.27

Another compound to look at: CCOC(=O)N1c2ccc(C(F)(F)F)cc2[C@@H](N(Cc2cc(C(F)(F)F)cc(C(F)(F)F)c2)C(=O)OC)C[C@H]1CC [Torcetrapib]
−0.14

----------
System: hepatocytes
ASSAY_TEXT: RNA-seq of hepatocytes treated with Phase III failure compounds
CONDITION_SUMMARY: gene CPT2; hepatocytes
Description: RNA-seq was performed to determine the effects of the compounds on hepatocytes. Significance was determined by the criteria of FPKM≥0.5, a log 2(fold-change)≥1, and a […].
So basically, the class depends on measured RNA-seq results: CPT2 expression, and the ranges are label 0: < -0.1; label 1: ≥ -0.1 and < 0.3; label 2: ≥ 0.3

Take a look at these entries with their results.
MOLECULE: C=CCNC1=C2C[C@@H](C)C[C@H](OC)[C@H](O)[C@@H](C)/C=C(\C)[C@H](OC(N)=O)[C@@H](OC)/C=C\C=C(/C)C(=O)NC(=CC1=O)C2=O [17-MG (Tanespimycin), Tanespimycin]
CLASS_NAME: label 2
//
MOLECULE: COc1cc2nccc(Oc3ccc(NC(=O)Nc4cc(C)on4)c(Cl)c3)c2cc1OC [Tivozanib]
CLASS_NAME: label 1
//
MOLECULE: COc1cc2c(Oc3ccc4[nH]c(C)cc4c3F)ncnc2cc1OCCCN1CCCC1 [Cediranib]
CLASS_NAME: label 2
//
MOLECULE: CCN(CC)CCN(Cc1ccc(-c2ccc(C(F)(F)F)cc2)cc1)C(=O)Cn1c(SCc2ccc(F)cc2)nc(=O)c2c1CCC2 [Darapladib]
CLASS_NAME: label 0
//
MOLECULE: COc1cc(Nc2ncc(F)c(Nc3ccc4c(n3)N(COP(=O)(O)O)C(=O)C(C)(C)O4)n2)cc(OC)c1OC [fostamatinib]
CLASS_NAME: label 1

Please turn your attention to the following entry.
// return the class label for CCC(CC)[C@H](NC(C)=O)[C@@H]1[C@H](O)[C@@H](C(=O)O)C[C@H]1NC(=N)N.O.O.O [peramivir (trihydrate), peramivir]
label 1

----------
System: hepatocytes
ASSAY_TEXT: RNA-seq of hepatocytes treated with Phase III failure compounds
CONDITION_SUMMARY: gene A1BG; hepatocytes
PROPERTY_LABEL: RNA-seq results: A1BG expression
// keep it numeric: no unit symbol after the value

COMPOUND: CCN(CC)CCN(Cc1ccc(-c2ccc(C(F)(F)F)cc2)cc1)C(=O)Cn1c(SCc2ccc(F)cc2)nc(=O)c2c1CCC2
PROPERTY_LABEL: RNA-seq results: A1BG expression
RECORDED_VALUE: 0.01
//
COMPOUND: Cn1cnc2c(F)c(Nc3ccc(Br)cc3Cl)c(C(=O)NOCCO)cc21
PROPERTY_LABEL: RNA-seq results: A1BG expression
RECORDED_VALUE: 0.00
//
COMPOUND: C=CCNC1=C2C[C@@H](C)C[C@H](OC)[C@H](O)[C@@H](C)/C=C(\C)[C@H](OC(N)=O)[C@@H](OC)/C=C\C=C(/C)C(=O)NC(=CC1=O)C2=O
PROPERTY_LABEL: RNA-seq results: A1BG expression
RECORDED_VALUE: −0.10
//
COMPOUND: COc1cc2c(Oc3ccc4[nH]c(C)cc4c3F)ncnc2cc1OCCCN1CCCC1
PROPERTY_LABEL: RNA-seq results: A1BG expression
RECORDED_VALUE: 0.15

Recorded RNA-seq results: A1BG expression for Cn1cc(C2=C(c3cn(C4CCN(Cc5ccccn5)CC4)c4ccccc34)C(=O)NC2=O)c2ccccc21 , please?
0.13

Another compound to look at: O=P(O)(NCCCl)NCCCl [Palifosfamide]
−0.13

Another compound to look at: COc1cc(Nc2ncc(F)c(Nc3ccc4c(n3)N(COP(=O)(O)O)C(=O)C(C)(C)O4)n2)cc(OC)c1OC
0.01

Another compound to look at: CCC(CC)[C@H](NC(C)=O)[C@@H]1[C@H](O)[C@@H](C(=O)O)C[C@H]1NC(=N)N.O.O.O [peramivir (trihydrate), peramivir]
0.02

Another compound to look at: CCOC(=O)N1c2ccc(C(F)(F)F)cc2[C@@H](N(Cc2cc(C(F)(F)F)cc(C(F)(F)F)c2)C(=O)OC)C[C@H]1CC
−0.38

Another compound to look at: COc1cc2nccc(Oc3ccc(NC(=O)Nc4cc(C)on4)c(Cl)c3)c2cc1OC
0.51

Another compound to look at: NC(=O)c1ccc(I)c([N+](=O)[O-])c1
−0.21

----------
Test system: hepatocytes
ASSAY_TEXT: RNA-seq of hepatocytes treated with Phase III failure compounds
CONDITION_SUMMARY: gene BBS10; hepatocytes
Where a name gives a salt, the structure may show the parent alone.
Please enter 1.0 where BBS10 expression, RNA-seq result is greater than or equal to -0.06, and 0.0 where it is lower.

Take a look at these entries with their results.
COMPOUND: COc1nc(N)nc2c1ncn2[C@@H]1O[C@H](COP(=O)(N[C@@H](C)C(=O)OCC(C)(C)C)Oc2cccc3ccccc23)[C@@H](O)[C@@]1(C)O (stereo partly shown)
CLASS_NAME: 1.0
//
COMPOUND: Fc1ccc(C(OCCN2CCN(CCCc3ccccc3)CC2)c2ccc(F)cc2)cc1 [Vanoxerine (dihydrochloride), Vanoxerine]
CLASS_NAME: 0.0
//
COMPOUND: CC(C)[C@H](O)C(=O)N[C@@H](C)C(=O)N[C@@H]1C(=O)N(C)CCc2ccccc21
CLASS_NAME: 0.0
//
COMPOUND: O=C(N[C@H]1CN2CCC1CC2)c1cc2cccc(Cl)c2s1 [EVP-6124 (hydrochloride) (encenicline), encenicline]
CLASS_NAME: 0.0
//
COMPOUND: CN(C)[C@@H]1C(O)=C(C(N)=O)C(=O)[C@@]2(O)C(O)=C3C(=O)c4c(O)c(NC(=O)CN5CCCC5)cc(F)c4C[C@H]3C[C@@H]12 [TP-434 (Eravacycline), Eravacycline]
CLASS_NAME: 1.0
//
COMPOUND: COc1nc(C)cnc1NS(=O)(=O)c1cccnc1-c1ccc(-c2nnco2)cc1
CLASS_NAME: 1.0
//
COMPOUND: Cn1c(COP(=O)(NCCBr)NCCBr)cnc1[N+](=O)[O-] [TH-302 (Evofosfamide), Evofosfamide]
CLASS_NAME: 1.0
//
COMPOUND: C=CC(=O)Nc1cccc(Nc2nc(Nc3ccc(N4CCN(C(C)=O)CC4)cc3OC)ncc2C(F)(F)F)c1 [CO-1686 (Rociletinib), Rociletinib]
CLASS_NAME: 0.0

Please turn your attention to the following entry.
Could you tell me if the measured BBS10 expression, RNA-seq result of COCCOc1ccc(N2CCN(CCn3ncc4c3nc(N)n3nc(-c5ccco5)nc43)CC2)cc1 reaches -0.06 or more?
0.0

All values here come from patent US20210254056A1.
